Provenance of the data: patent US10287267B2

- Tested on: SW480 colon carcinoma cells
- assay.info: Cell viability assay (CellTiter-Glo)
- Type: cell-based, human
- condition.notes: Homo sapiens, SW480; read-out: percent inhibition at 10 μM
So I've got a bunch of molecules here, and I need their inhibition at 10 µM values.
Give the value in % but do not write % after it.

Prompt line: Could you share what inhibition at 10 µM was measured for C[C@@H]1COCCN1CC(=O)Nc1cc2cc(-c3cnn(C)c3)ccc2cn1 [Compound 342] , tested on SW480 colon carcinoma cells?
Response line: 40

Prompt line: // map Cc1nnc(-c2ccc3cnc(NC(=O)C4(F)CCN(CC(C)C)CC4)cc3c2)o1 [Compound 309] to recorded inhibition at 10 µM (system: SW480 colon carcinoma cells)
Response line: 9.6

Prompt line: Return inhibition at 10 µM measured with SW480 colon carcinoma cells given this molecule: Cc1ncc(-c2ccc3cnc(NC(=O)CN4CCOCC4)cc3c2)s1 [Compound 994]
Response line: 36.8

Prompt line: API: value(readout= inhibition at 10 µM, system= SW480 colon carcinoma cells, query= Cc1ncc(-c2ccc3cnc(NC(=O)CN4C[C@H]5C[C@@H]4CO5)cc3c2)s1 [Compound 996] )
Response line: 32.2

---

- assayed.system: recombinant GSK3β kinase (Homo sapiens (Human), UniProt P49841)
- Sequence (P49841 whole entry): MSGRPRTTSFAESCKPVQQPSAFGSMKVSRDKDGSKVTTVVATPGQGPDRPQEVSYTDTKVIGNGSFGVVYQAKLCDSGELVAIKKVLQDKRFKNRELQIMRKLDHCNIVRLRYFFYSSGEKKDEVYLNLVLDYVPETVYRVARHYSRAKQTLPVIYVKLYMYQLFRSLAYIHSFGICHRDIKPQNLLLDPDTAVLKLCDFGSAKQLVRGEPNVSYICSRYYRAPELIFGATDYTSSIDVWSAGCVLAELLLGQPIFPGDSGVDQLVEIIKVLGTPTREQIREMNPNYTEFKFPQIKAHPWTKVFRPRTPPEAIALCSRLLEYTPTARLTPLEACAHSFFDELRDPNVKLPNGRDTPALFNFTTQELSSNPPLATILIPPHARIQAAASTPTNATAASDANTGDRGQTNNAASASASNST
- assay.info: GSK3β kinase assay (Ser/Thr 09 peptide Z-lyte FRET);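 note: kinase activity read as coumarin to fluorescein emission ratio, 11-point threefold dilutions from 10 µM to 0.0003 µM in duplicate, unphosphorylated and phosphorylated peptide as 0% and 100% controls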
- Type: biochemical
- condition.notes: 46 μM ATP, 1 h room temperature
Please respond with reported pEC50 for every item in the list.
Scale for pEC50: -log10 of concentration given in mol/L; no unit attached.

Prompt line: GET /values?readout=pEC50&item= CC(C)CN1CCC(F)(C(=O)Nc2cc3cc(-c4cnn5c4CN(CCF)CC5)ccc3cn2)CC1 [Compound 1023]
Response line: 6.08

Prompt line: Request the reported pEC50 associated with C[C@H]1CCCN1CC(=O)Nc1cc2cc(-c3cnn(C)c3)ccc2cn1 [Compound 290]
Response line: 7.12

Prompt line: Field request: pEC50 | item: CN1CCn2ncc(-c3ccc4cnc(NC(=O)C5CC(F)(F)C5)cc4c3)c2C1 [Compound 267]
Response line: 7.41

Prompt line: Which value of pEC50 has been reported for Cn1cc(-c2ccc3cnc(NC(=O)C4CCN(CC(C)(F)F)CC4)cc3c2)cn1 [Compound 83] in the records?
Response line: 7.47

Prompt line: Can you share its pEC50? I mean this molecule: Cn1cc(-c2ccc3cnc(NC(=O)C4CCN(CCO)CC4)cc3c2)cn1 [Compound 358]
Response line: 7.10

Prompt line: Look up pEC50 for this molecule: CC(C)CN1CCC(F)(C(=O)Nc2cc3cc(-n4ccnn4)ccc3cn2)CC1 [Compound 1074]
Response line: 6.56

Prompt line: What value of pEC50 has been recorded for this entry: Cn1cncc1-c1ccc2cnc(NC(=O)[C@H]3CC[C@H](CO)CC3)cc2c1 [Compound 531]
Response line: 7.30

Prompt line: Fill in: pEC50 of O=C(Nc1cc2cc(-c3cncs3)ccc2cn1)[C@H]1CC[C@H](CN2CC(F)C2)CC1 [Compound 711] is ___
Response line: 7.17

Prompt line: Query (molecule): Cn1cc(-c2ccc3cnc(NC(=O)[C@H]4CC[C@H](C(=O)O)CC4)cc3c2)cn1 [Compound 1032] ; field requested: pEC50
Response line: 7.14

Prompt line: Given the entry CC(C)N1CCC(C(=O)Nc2cc3cc(-c4cnn(C)c4)ccc3cn2)CC1 [Compound 75] , report its measured pEC50.
Response line: 7.19

Prompt line: Which pEC50 is listed for CCN1CCC(F)(C(=O)Nc2cc3cc(-c4cn(C)nn4)ccc3cn2)CC1 [Compound 282] ?
Response line: 6.87

Prompt line: Which pEC50 is reported for this molecule? CN(CC(=O)Nc1cc2cc(-c3cnco3)ccc2cn1)C1CCC1 [Compound 980]
Response line: 6.41

Prompt line: Recorded pEC50 for CN1CCCN(CC(=O)Nc2cc3cc(-c4cnn(C)c4)ccc3cn2)CC1 [Compound 1012] , please?
Response line: 6.81

Prompt line: # input molecule: CCN(CC)c1ncc(-c2ccc3cnc(NC(=O)CN4CCN(C)CC4)cc3c2)s1 [Compound 1048] ; wanted: its pEC50
Response line: 5.24

Prompt line: What pEC50 value was documented for this molecule, O=C(Nc1cc2cc(-c3cnc4n3CCNC4)ccc2cn1)C1CC1 [Compound 265] ?
Response line: 8.15

Prompt line: What pEC50 value was documented for this molecule, CN1CCC(NC(=O)Nc2cc3cc(-c4cnn(C)c4)ccc3cn2)CC1 [Compound 1090] ?
Response line: 6.54
